- target or system: von Hippel-Lindau disease tumor suppressor/Tyrosine-protein phosphatase non-receptor type 11 (Homo sapiens, UniProt Q06124+P40337)
- Sequence (P40337 whole entry partner): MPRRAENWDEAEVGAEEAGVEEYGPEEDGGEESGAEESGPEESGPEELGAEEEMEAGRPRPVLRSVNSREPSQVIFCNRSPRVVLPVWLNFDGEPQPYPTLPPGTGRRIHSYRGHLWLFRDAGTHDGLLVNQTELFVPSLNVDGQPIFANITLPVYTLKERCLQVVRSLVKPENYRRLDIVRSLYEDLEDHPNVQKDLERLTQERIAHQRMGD
- Sequence (Q06124 2-593 limits assumed): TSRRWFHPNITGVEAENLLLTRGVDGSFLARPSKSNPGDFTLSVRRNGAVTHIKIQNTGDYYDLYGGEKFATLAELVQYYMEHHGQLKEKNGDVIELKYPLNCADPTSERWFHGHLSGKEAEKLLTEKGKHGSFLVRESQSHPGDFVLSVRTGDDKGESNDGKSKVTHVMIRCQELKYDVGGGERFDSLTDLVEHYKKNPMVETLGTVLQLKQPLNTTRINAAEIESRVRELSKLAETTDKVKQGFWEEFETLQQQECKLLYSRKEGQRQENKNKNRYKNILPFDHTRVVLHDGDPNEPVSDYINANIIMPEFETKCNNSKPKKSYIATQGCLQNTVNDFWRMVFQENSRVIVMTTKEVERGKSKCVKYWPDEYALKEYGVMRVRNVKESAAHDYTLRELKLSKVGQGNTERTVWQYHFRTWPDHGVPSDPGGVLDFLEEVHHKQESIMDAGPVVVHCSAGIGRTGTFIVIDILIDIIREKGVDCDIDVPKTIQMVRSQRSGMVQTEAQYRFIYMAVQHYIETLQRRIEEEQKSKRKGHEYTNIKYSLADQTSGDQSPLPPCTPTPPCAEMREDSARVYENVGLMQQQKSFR
- assay: Protac activity at VHL1/SHP2 in human KYSE520 cells assessed as induction of SHP2 degradation at 0.1 uM measured after 6 hrs by Western blot analysis relative to control
- Format: cell-based
A collection of compounds and their measured Activity
Express the result in % but write the number alone.

{"compound": "Cc1ncsc1-c1ccc([C@H](C)NC(=O)[C@@H]2C[C@@H](O)CN2C(=O)[C@@H](NC(=O)CCCCCNC(=O)CC(=O)Nc2cccc(Sc3ncc(N4CCC(C)(N)CC4)nc3N)c2Cl)C(C)(C)C)cc1 (single isomer, unassigned)", "unit name": "%", "Activity": 0}
{"compound": "Cc1ncsc1-c1ccc([C@H](C)NC(=O)[C@@H]2C[C@@H](O)CN2C(=O)[C@@H](NC(=O)CCNC(=O)CC(=O)Nc2cccc(Sc3ncc(N4CCC(C)(N)CC4)nc3N)c2Cl)C(C)(C)C)cc1", "unit name": "%", "Activity": 4}
{"compound": "Cc1ncsc1-c1ccc([C@H](C)NC(=O)[C@@H]2C[C@@H](O)CN2C(=O)[C@@H](NC(=O)CCCCCCCNC(=O)CC(=O)Nc2cccc(Sc3ncc(N4CCC(C)(N)CC4)nc3N)c2Cl)C(C)(C)C)cc1 (single isomer, unassigned)", "unit name": "%", "Activity": 20}
{"compound": "Cc1ncsc1-c1ccc([C@H](C)NC(=O)[C@@H]2C[C@@H](O)CN2C(=O)[C@@H](NC(=O)CCCCCCCCCCCN2CCN(CC(=O)Nc3cccc(Sc4ncc(N5CCC(C)(N)CC5)nc4N)c3Cl)CC2)C(C)(C)C)cc1 (single isomer, unassigned)", "unit name": "%", "Activity": 80}

Kindly review the next compound as well.
Which Activity is reported for this compound? Cc1ncsc1-c1ccc([C@H](C)NC(=O)[C@@H]2C[C@@H](O)CN2C(=O)[C@@H](NC(=O)CCCCCCCCCCN2CCN(CC(=O)Nc3cccc(Sc4ncc(N5CCC(C)(N)CC5)nc4N)c3Cl)CC2)C(C)(C)C)cc1 (single isomer, unassigned)
85

---

- target or system: von Hippel-Lindau disease tumor suppressor/Tyrosine-protein phosphatase non-receptor type 11 (Homo sapiens, UniProt Q06124+P40337)
- assay: Protac activity at VHL1/SHP2 in human KYSE520 cells assessed as induction of SHP2 degradation at 1 uM measured after 6 hrs by Western blot analysis relative to control
- Assay type: cell-based
measured quantity: Activity (%)
Express the result in % but write the number alone.

{"compound": "Cc1ncsc1-c1ccc([C@H](C)NC(=O)[C@@H]2C[C@@H](O)CN2C(=O)[C@@H](NC(=O)CCCCCCCCCCCCCCC(=O)Nc2cccc(Sc3ncc(N4CCC(C)(N)CC4)nc3N)c2Cl)C(C)(C)C)cc1 (single isomer, unassigned)", "Activity / %": 90}

Kindly review the next compound as well.
Which Activity is reported for this compound? Cc1ncsc1-c1ccc([C@H](C)NC(=O)[C@@H]2C[C@@H](O)CN2C(=O)[C@@H](NC(=O)CCCCCCCCCCCNC(=O)CC(=O)Nc2cccc(Sc3ncc(N4CCC(C)(N)CC4)nc3N)c2Cl)C(C)(C)C)cc1 (single isomer, unassigned)
93

---

- target or system: von Hippel-Lindau disease tumor suppressor/Tyrosine-protein phosphatase non-receptor type 11 (Homo sapiens, UniProt Q06124+P40337)
- assay: Protac activity at VHL1/SHP2 in human KYSE520 cells assessed as induction of SHP2 degradation at 1 uM measured after 6 hrs by Western blot analysis relative to control
- Format: cell-based
measured quantity: Activity

Which Activity is reported for this compound? Cc1ncsc1-c1ccc([C@H](C)NC(=O)[C@@H]2C[C@@H](O)CN2C(=O)[C@@H](NC(=O)CCCCCCCCN2CCN(C(=O)CCC(=O)Nc3cccc(Sc4ncc(N5CCC(C)(N)CC5)nc4N)c3Cl)CC2)C(C)(C)C)cc1 (single isomer, unassigned)
> 95%

Same question for Cc1ncsc1-c1ccc([C@H](C)NC(=O)[C@@H]2C[C@@H](O)CN2C(=O)[C@@H](NC(=O)CCCCCCCCCCCNC(=O)CCC(=O)Nc2cccc(Sc3ncc(N4CCC(C)(N)CC4)nc3N)c2Cl)C(C)(C)C)cc1 please.
> 95%

Same question for Cc1ncsc1-c1ccc([C@H](C)NC(=O)[C@@H]2C[C@@H](O)CN2C(=O)[C@@H](NC(=O)CCCCCCCCCCNC(=O)CCC(=O)Nc2cccc(Sc3ncc(N4CCC(C)(N)CC4)nc3N)c2Cl)C(C)(C)C)cc1 please.
> 95%
